Origin of measurements: the Human Domainome abundance scans (Beltran et al. 2025)

The following variants are shown together with reported abundance fitness values.
B1: Retinoic acid receptor beta, residues 85 to 161; numbered along this chain, P10826 (parent)
chain: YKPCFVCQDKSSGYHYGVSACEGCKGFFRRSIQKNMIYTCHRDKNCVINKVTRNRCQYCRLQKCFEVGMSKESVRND

Variants of: B1
Test: abundance fitness (aPCA) (normalised: wild type 0, dead -1); higher = more abundant; growth selection in yeast, the domain comes from the species named
Conditions: Homo sapiens
Form: value (number only, do not type unit).

-- ask Recorded abundance fitness of V47G , please.
-- reply -0.096

-- ask Recorded abundance fitness of Q57K , please.
-- reply -0.245

-- ask Recorded abundance fitness of L61Y , please.
-- reply -0.181

-- ask Recorded abundance fitness of K10V , please.
-- reply 0.007

Others:
-- ask Recorded abundance fitness of R55H , please.
-- reply 0.205

-- ask Recorded abundance fitness of C7Q , please.
-- reply -1

-- ask Recorded abundance fitness of Y1G , please.
-- reply -0.097

-- ask Recorded abundance fitness of Y38S , please.
-- reply -0.417

-- ask Recorded abundance fitness of T39A , please.
-- reply -0.017

-- ask Recorded abundance fitness of S12I , please.
-- reply -0.096

-- ask Recorded abundance fitness of F28H , please.
-- reply -0.338

-- ask Recorded abundance fitness of A20Y , please.
-- reply -0.594

-- ask Recorded abundance fitness of R60V , please.
-- reply -0.369

-- ask Recorded abundance fitness of I48W , please.
-- reply -0.647

-- ask Recorded abundance fitness of Y14W , please.
-- reply 0.061

-- ask Recorded abundance fitness of H41S , please.
-- reply -0.089

-- ask Recorded abundance fitness of C7D , please.
-- reply -0.724

-- ask Recorded abundance fitness of R30W , please.
-- reply -0.647

-- ask Recorded abundance fitness of N54G , please.
-- reply -0.007
